FYI, the data here is from ChEMBL document CHEMBL1137180.

Dear all, this message contains Ki results, target or system 72 kDa type IV collagenase (Homo sapiens, UniProt P08253).

Some compounds with known Ki results, for comparison:
>  <compound>
Cc1cc(COc2ccc(S(=O)(=O)CC3(CC(=O)NO)CCCN3CC(C)C)cc2)c2ccccc2n1 (stereo not drawn)

>  <Ki>
1.33 µM

$$$$
>  <compound>
Cc1cc(COc2ccc(S(=O)(=O)CC3(CC(=O)NO)CCOCC3)cc2)c2ccccc2n1

>  <Ki>
> 3.3 µM

$$$$
>  <compound>
Cc1cc(COc2ccc(S(=O)(=O)CC3(CC(=O)NO)CCCN(C(C)C)C3)cc2)c2ccccc2n1 (stereo not drawn)

>  <Ki>
> 3.3 µM

$$$$
>  <compound>
Cc1cc(COc2ccc(S(=O)(=O)CC3(CC(=O)NO)CCCO3)cc2)c2ccccc2n1 (stereo not drawn)

>  <Ki>
> 3.3 µM

$$$$

Asked: State Ki (72 kDa type IV collagenase (Homo sapiens, UniProt P08253)) of Cc1cc(COc2ccc(S(=O)(=O)CC3(CC(=O)NO)CCN(CC(C)C)C3)cc2)c2ccccc2n1 (stereo not drawn) .
Given back: 2.17 µM

Asked: Look up 72 kDa type IV collagenase (Homo sapiens, UniProt P08253) data: Ki of Cc1cc(COc2ccc(S(=O)(=O)CC3(CC(=O)NO)CCCN3C)cc2)c2ccccc2n1 (stereo not drawn) , then report it.
Given back: > 3.3 µM

Asked: Please look at Cc1cc(COc2ccc(S(=O)(=O)CC3(CC(=O)NO)CCNC3)cc2)c2ccccc2n1 (stereo not drawn) and tell me its recorded Ki on 72 kDa type IV collagenase (Homo sapiens, UniProt P08253).
Sequence (P08253 whole entry): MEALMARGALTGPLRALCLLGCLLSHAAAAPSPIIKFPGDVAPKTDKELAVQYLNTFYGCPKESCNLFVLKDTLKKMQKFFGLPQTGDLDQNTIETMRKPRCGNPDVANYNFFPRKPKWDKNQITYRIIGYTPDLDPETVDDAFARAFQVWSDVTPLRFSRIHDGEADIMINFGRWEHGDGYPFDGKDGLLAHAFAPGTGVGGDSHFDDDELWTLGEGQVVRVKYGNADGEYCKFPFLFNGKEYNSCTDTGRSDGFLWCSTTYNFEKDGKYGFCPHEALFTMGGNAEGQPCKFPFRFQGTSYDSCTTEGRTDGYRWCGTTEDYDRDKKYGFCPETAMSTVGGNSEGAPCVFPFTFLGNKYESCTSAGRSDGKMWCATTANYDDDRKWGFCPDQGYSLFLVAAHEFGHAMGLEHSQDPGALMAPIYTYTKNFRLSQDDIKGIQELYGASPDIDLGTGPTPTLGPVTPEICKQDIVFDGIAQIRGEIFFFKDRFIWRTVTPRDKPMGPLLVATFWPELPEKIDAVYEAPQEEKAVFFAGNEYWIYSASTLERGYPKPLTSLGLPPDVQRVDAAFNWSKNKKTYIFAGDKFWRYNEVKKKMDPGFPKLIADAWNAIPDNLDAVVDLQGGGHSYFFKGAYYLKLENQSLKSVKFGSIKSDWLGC
Given back: > 3.3 µM

Asked: For 72 kDa type IV collagenase (Homo sapiens, UniProt P08253), give the measured Ki of the entry CCCCCN1CCC(CC(=O)NO)(CS(=O)(=O)c2ccc(OCc3cc(C)nc4ccccc34)cc2)C1 (stereo not drawn)
Given back: > 3.3 µM

====

pIC50: −log10 of the molar value.
# Disintegrin and metalloproteinase domain-containing protein 17 (Sus scrofa): pIC50 values follow

Asked: Send back Disintegrin and metalloproteinase domain-containing protein 17 (Sus scrofa) pIC50 of Cc1cc(COc2ccc(S(=O)(=O)CC3CCN(C(C)C)CC3C(=O)NO)cc2)c2ccccc2n1 (configuration not stated) only.
Given back: > 7.96

Asked: Lab note: record pIC50 of CCC(C)N1CCC(C(=O)NO)C(CS(=O)(=O)c2ccc(OCc3cc(C)nc4ccccc34)cc2)C1 (configuration not stated) tested on Disintegrin and metalloproteinase domain-containing protein 17 (Sus scrofa).
Given back: > 9.00

====

experimental-system: Disintegrin and metalloproteinase domain-containing protein 17 (Sus scrofa, UniProt O77636)
Sequence (O77636 whole entry, the tested form may be a part): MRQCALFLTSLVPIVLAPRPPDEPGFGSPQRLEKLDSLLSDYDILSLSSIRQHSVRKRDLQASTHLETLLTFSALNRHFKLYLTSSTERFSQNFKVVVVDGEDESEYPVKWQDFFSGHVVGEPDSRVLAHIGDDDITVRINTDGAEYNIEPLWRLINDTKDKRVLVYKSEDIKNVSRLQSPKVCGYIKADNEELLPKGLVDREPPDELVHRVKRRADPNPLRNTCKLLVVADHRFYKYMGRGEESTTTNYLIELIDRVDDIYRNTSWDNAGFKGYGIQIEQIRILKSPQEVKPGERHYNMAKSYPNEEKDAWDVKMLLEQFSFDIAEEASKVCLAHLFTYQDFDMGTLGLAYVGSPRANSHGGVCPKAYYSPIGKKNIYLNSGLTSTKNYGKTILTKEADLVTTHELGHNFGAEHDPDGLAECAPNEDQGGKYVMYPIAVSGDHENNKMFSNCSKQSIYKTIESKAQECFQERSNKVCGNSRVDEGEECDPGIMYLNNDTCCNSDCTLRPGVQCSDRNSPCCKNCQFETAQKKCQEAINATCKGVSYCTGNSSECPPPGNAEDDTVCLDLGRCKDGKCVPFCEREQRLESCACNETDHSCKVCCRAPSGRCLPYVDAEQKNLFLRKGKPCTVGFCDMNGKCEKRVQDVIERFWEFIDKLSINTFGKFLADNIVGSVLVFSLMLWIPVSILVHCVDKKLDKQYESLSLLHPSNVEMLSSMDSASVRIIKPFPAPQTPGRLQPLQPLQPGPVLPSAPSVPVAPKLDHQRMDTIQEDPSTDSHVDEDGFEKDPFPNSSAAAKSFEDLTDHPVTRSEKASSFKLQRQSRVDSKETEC
pIC50: −log10 of the molar value.
metric-name: pIC50

>  <compound>
Cc1cc(COc2ccc(S(=O)(=O)CC3CCNCC3C(=O)NO)cc2)c2ccccc2n1 (stereo not given)

>  <pIC50>
> 8.82

$$$$

Asked: Give pIC50 for the following compound: Cc1cc(COc2ccc(S(=O)(=O)CC3C(C(=O)NO)CCN3C)cc2)c2ccccc2n1 (stereo not given)
Given back: > 9.00

Asked: Note down pIC50 recorded for Cc1cc(COc2ccc(S(=O)(=O)CC3C(C(=O)NO)CCCN3C)cc2)c2ccccc2n1 (stereo not given)
Given back: > 8.96

Asked: Specify pIC50 for Cc1cc(COc2ccc(S(=O)(=O)CC3(CC(=O)NO)CCCCN3)cc2)c2ccccc2n1 (stereo not given) and stop.
Given back: > 9.00

====

Below are pIC50 values measured for Disintegrin and metalloproteinase domain-containing protein 17 (Sus scrofa).
Notebook: values listed as pIC50 are -log10 of the concentration (mol/L).

Please review the following examples before continuing.
>  <molecule>
Cc1cc(COc2ccc(S(=O)(=O)CC3(CC(=O)NO)CCN(C)C3)cc2)c2ccccc2n1 (stereo unspecified)

>  <experimental-system>
Disintegrin and metalloproteinase domain-containing protein 17 (Sus scrofa)

>  <pIC50>
8.49

$$$$
>  <molecule>
Cc1cc(COc2ccc(S(=O)(=O)CC3(CC(=O)NO)CCCN(C(C)C)C3)cc2)c2ccccc2n1 (stereo unspecified)

>  <experimental-system>
Disintegrin and metalloproteinase domain-containing protein 17 (Sus scrofa)

>  <pIC50>
8.57

$$$$

Shifting focus to the molecule that follows.
Asked: // output pIC50; input Cc1cc(COc2ccc(S(=O)(=O)CC3(CC(=O)NO)CCCN3)cc2)c2ccccc2n1 (stereo unspecified) ; system Disintegrin and metalloproteinase domain-containing protein 17 (Sus scrofa)
Given back: 9.00

====

The following molecules are shown together with reported pIC50 values.
experimental-system: Disintegrin and metalloproteinase domain-containing protein 17 (Sus scrofa, UniProt O77636)
pIC50: −log10 of the molar value.

Answered examples (2):
>  <molecule>
Cc1cc(COc2ccc(S(=O)(=O)CC3(CC(=O)NO)CCOCC3)cc2)c2ccccc2n1

>  <pIC50>
> 9.00

$$$$
>  <molecule>
Cc1cc(COc2ccc(S(=O)(=O)CC3(CC(=O)NO)CCC3)cc2)c2ccccc2n1

>  <pIC50>
> 9.00

$$$$

Asked: Provide only the value of recorded pIC50 for CCC(C)N1CCCCC1(CC(=O)NO)CS(=O)(=O)c1ccc(OCc2cc(C)nc3ccccc23)cc1 (stereo not drawn)
Given back: > 7.32
